# System: Streptococcus sp.
# assay.method.text: In vitro antibacterial evaluation: minimum inhibitory concentration (MIC), broth dilution method
# Type: cell-based
# condition.parameters: Streptococcus pneumoniae (ATCC 6301); 18 hours at 35° C.
measurement.label: MIC Streptococcus pneumoniae (ATCC 6301)

- compound: "Cc1ccc(COCC2OC(OC3C(CO)OC(Oc4ccc(CC5NC(=O)C(C(C)c6ccccc6)NC(=O)CNC(=O)C(CO)NC(=O)C(C(O)C6CNC(=N)N6C6OC(CO)C(O)C(O)C6O)NC(=O)C(C(O)C6CNC(=N)N6)NC5=O)cc4)C(O)C3O)C(O)C(O)C2O)cc1 (stereo not shown)"
  test.result: "0.25 µg/mL"
- compound: "CC(c1ccccc1)C1NC(=O)CNC(=O)C(CO)NC(=O)C(C(O)C2CNC(=N)N2C2OC(CO)C(O)C(O)C2O)NC(=O)C(C(O)C2CNC(=N)N2)NC(=O)C(Cc2ccc(OC3OC(CO)C(OC4OC5COC(c6ccc(C(=O)c7cc(I)c(I)c(I)c7)cc6)OC5C(O)C4O)C(O)C3O)cc2)NC1=O (stereo not shown)"
  test.result: "<0.12 µg/mL"
- compound: "CC(c1ccccc1)C1NC(=O)CNC(=O)C(CO)NC(=O)C(C(O)C2CNC(=N)N2C2OC(CO)C(O)C(O)C2O)NC(=O)C(C(O)C2CNC(=N)N2)NC(=O)C(Cc2ccc(OC3OC(CO)C(OC4OC(CO)C(OCC=Cc5ccc(N(C)C)cc5)C(O)C4O)C(O)C3O)cc2)NC1=O (stereo not shown) [Example 243a]"
  test.result: "16 µg/mL"
- compound: "CC(c1ccccc1)C1NC(=O)CNC(=O)C(CO)NC(=O)C(C(O)C2CNC(=N)N2C2OC(CO)C(O)C(O)C2O)NC(=O)C(C(O)C2CNC(=N)N2)NC(=O)C(Cc2ccc(OC3OC(CO)C(OC4OC5COC(c6ccccc6)OC5C(O)C4O)C(O)C3O)c(I)c2)NC1=O (stereo not shown)"
  test.result: "64 µg/mL"

###

# System: Escherichia coli
# assay.method.text: In vitro antibacterial evaluation: minimum inhibitory concentration (MIC), broth dilution method
# Type: cell-based
# condition.parameters: Escherichia coli (GC 4560); 18 hours at 35° C.
Numbered stars: 1 amine (or outer) side, 2 acyl side, 3 side chain; on linkers, the order of the positions; unused ones are H or OH. Square brackets hold non-standard residues; d marks the D form. Peptide text beside a SMILES is read from it. ξ: configuration not given here. X3 = CC1(C)OCC2OC(N3C(=N)NCC3C(O)C(N[*:1])C(=O)[*:2])C3OC(C)(C)OC3C2O1; ξEnduracididine(βξ-OH,4'ξ) = N=C1NCC(C(O)C(N)C(=O)O)N1; ξPhe(βξ-Me) = CC(c1ccccc1)C(N)C(=O)O
measurement.label: MIC Escherichia coli (GC 4560) (µg/mL)

- molecule: "CC(c1ccccc1)C1NC(=O)CNC(=O)C(CO)NC(=O)C(C(O)C2CNC(=N)N2C2OC(CO)C(O)C(O)C2O)NC(=O)C(C(O)C2CNC(=N)N2)NC(=O)C(Cc2ccc(OC3OC(CO)C(OC4OC5COC6(CC7CCC6(C)C7(C)C)OC5C(O)C4O)C(O)C3O)cc2)NC1=O (stereo not drawn) [Example 214]"
  comparison.operator: "="
  test.result: 2
- molecule: "CC(c1ccccc1)C1NC(=O)CNC(=O)C(CO)NC(=O)C(C(O)C2CNC(=N)N2C2OC(CO)C(O)C3OC(C)(C)OC32)NC(=O)C(C(O)C2CNC(=N)N2)NC(=O)C(Cc2ccc(OC3OC(CO)C(OC4OC5COC(C)(C)OC5C5OC(C)(C)OC45)C4OC(C)(C)OC34)cc2)NC1=O (stereo not drawn) [Example 229b]"
  comparison.operator: "="
  test.result: 32
- molecule: "Cc1ccc(Oc2cccc(C3OCC4OC(OC5C(CO)OC(Oc6ccc(CC7NC(=O)C(C(C)c8ccccc8)NC(=O)CNC(=O)C(CO)NC(=O)C(C(O)C8CNC(=N)N8C8OC(CO)C(O)C(O)C8O)NC(=O)C(C(O)C8CNC(=N)N8)NC7=O)cc6I)C(O)C5O)C(O)C(O)C4O3)c2)cc1 (stereo not drawn) [Example 197]"
  comparison.operator: "="
  test.result: 16
- molecule: "COc1ccc(COC2C(CO)OC(OC3C(CO)OC(Oc4ccc(CC5NC(=O)C(C(C)c6ccccc6)NC(=O)CNC(=O)C(CO)NC(=O)C(C(O)C6CNC(=N)N6C6OC(CO)C(O)C(O)C6O)NC(=O)C(C(O)C6CNC(=N)N6)NC5=O)cc4)C(O)C3O)C(O)C2O)cc1OCc1ccccc1 (stereo not drawn) [Example 239a]"
  comparison.operator: "="
  test.result: 2
- molecule: "CC(c1ccccc1)C1NC(=O)CNC(=O)C(CO)NC(=O)C(C(O)C2CNC(=N)N2C2OC3COC(C)(C)OC3C3OC(C)(C)OC32)NC(=O)C(C(O)C2CNC(=N)N2)NC(=O)C(Cc2ccc(O)cc2)NC1=O (stereo not drawn) [Example 247] (cyclo(G[ξPhe(βξ-Me)]Y[ξEnduracididine(βξ-OH,4'ξ)][X3]S); configuration not given here)"
  comparison.operator: ">"
  test.result: 64
- molecule: "CC(c1ccccc1)C1NC(=O)CNC(=O)C(CO)NC(=O)C(C(O)C2CNC(=N)N2C2OC(CO)C(O)C(O)C2O)NC(=O)C(C(O)C2CNC(=N)N2)NC(=O)C(Cc2ccc(OC3OC(CO)C(OC4OC5COC6(CC7CCC6(C)C7(C)C)OC5C(O)C4O)C(O)C3O)cc2)NC1=O (stereo not drawn) [Example 215]"
  comparison.operator: "="
  test.result: 1
- molecule: "COc1ccc2cc(COC3C(OC4C(CO)OC(Oc5ccc(CC6NC(=O)C(C(C)c7ccccc7)NC(=O)CNC(=O)C(CO)NC(=O)C(C(O)C7CNC(=N)N7C7OC(CO)C(O)C(O)C7O)NC(=O)C(C(O)C7CNC(=N)N7)NC6=O)cc5)C(O)C4O)OC(CO)C(O)C3O)ccc2c1 (stereo not drawn) [Example 230c]"
  comparison.operator: "="
  test.result: 32
- molecule: "CC(c1ccccc1)C1NC(=O)CNC(=O)C(CO)NC(=O)C(C(O)C2CNC(=N)N2C2OC(CO)C(O)C(O)C2O)NC(=O)C(C(O)C2CNC(=N)N2)NC(=O)C(Cc2ccc(OC3OC(CO)C(OC4OC(COCc5ccc(Oc6ccccc6)cc5)C(O)C(O)C4O)C(O)C3O)cc2)NC1=O (stereo not drawn) [Example 236]"
  comparison.operator: "="
  test.result: 1
